# Method: chemical genetic growth profiling, strain panel (AID 1159580);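 also: tested at 20 µM; growth read once vehicle control cultures reached saturation at 30 °C; 1 = growth at the plate median or of vehicle wells; lower values mean less growth of the strain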
# Condition Info: S. cerevisiae deletion strains, growth OD, locus YBR009C, strain hhf1, active compounds read low
About 2,000 (36%) of roughly 5,500 compounds were called active. Not shown: some 18% with an inconclusive outcome. This is one part of the list.
Measured Attribute: normalized growth

COc1cc([C@@H]2c3cc4c(cc3[C@H](OC(C)=O)[C@H]3COC(=O)[C@H]23)OCO4)cc(OC)c1OC	1.01 (inactive)
C=C1C(N)CC2CC1C2(C)C (centres undefined)	1.01 (inactive)
CC1=C2C(=CO[C@H](C)[C@H]2C)C(=O)C(C(=O)O)=C1O	0.975 (inactive)
NCC(=O)CCC(=O)O	1.03 (inactive)

###

# Method: chemical genetic growth profiling, strain panel (AID 1159580);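 also: tested at 20 µM; growth read once vehicle control cultures reached saturation at 30 °C; 1 = growth at the plate median or of vehicle wells; lower values mean less growth of the strain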
# Condition Info: S. cerevisiae deletion strains, growth OD, locus YNR052C, strain pop2
In all, about 5,500 compounds went through this assay and about 2,000 (36%) were called active. Roughly 18% stayed inconclusive and do not appear here. Cut-off read from the data, not from the text of the source: active = normalized growth mostly below about 0.91 (no sharp cut-off); inconclusive = no clear call, values can overlap the other calls; inactive = mostly above about 0.92. The list shows a part of the results.
Classes used: 1 for active, -1 for inactive

O=C1c2c(O)ccc(O)c2C(=O)c2c(NCCNCCO)ccc(NCCNCCO)c21	1
CC(=O)O[C@H]1C[C@@H](O)C(C)(C)C2C[C@@H](OC(C)=O)[C@]3(C)C(CC[C@@]4(C)[C@H](c5ccoc5)OC(=O)C5OC543)[C@]21C (stereo not given in full)	-1
CC1=NCCc2c1[nH]c1cc(O)ccc21	-1
COc1cccc2c1cc([N+](=O)[O-])c1c(C(=O)O)cc3c(c12)OCO3	-1
CC(=O)[C@H]1CCC2C3CC=C4C[C@@H](O)CC[C@]4(C)C3CC[C@@]21C (stereo not given in full)	-1

###

The following compounds are listed with their measured normalized growth values.
# Method: chemical genetic growth profiling, strain panel (AID 1159580);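 also: tested at 20 µM; growth read once vehicle control cultures reached saturation at 30 °C; 1 = growth at the plate median or of vehicle wells; lower values mean less growth of the strain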
# Condition Info: S. cerevisiae deletion strains, growth OD, locus YJL134W, strain LCB3, active compounds read low
About 2,000 (36%) of roughly 5,500 compounds were called active. About 18% were inconclusive and are not listed. Some of the results follow.
Measured Attribute: normalized growth

C=CCCCCCCCCCCCC(O)CC(O)CO (stereo not given)	0.995
NCCc1ccc(O)cc1	1.01
CC(N)Cc1ccc(O)cc1 (stereo not given)	1.01
CC(=O)Oc1c(-c2ccccc2)oc2c(CC=C(C)C)c3c(c(OC(C)=O)c2c1=O)C=CC(C)(C)O3	0.948
CC(C)[C@]12O[C@H]1[C@@H]1O[C@@]13[C@@]1(C)CCC4=C(COC4=O)[C@@H]1C[C@@H]1O[C@@]13C2=O	1.01
CCCCCCc1ccc(O)cc1O	0.96
CC1(C)O[C@@H]2CC3C4C[C@H](F)C5=CC(=O)C=C[C@]5(C)[C@@]4(F)[C@@H](O)C[C@]3(C)[C@]2(C(=O)CO)O1 (stereo not given in full)	1
COc1c2c(cc3c1OCO3)CC[N+](C)=C2	0.994
CC(C)=CCc1c2c(c(O)c3c(=O)c(O)c(-c4ccccc4)oc13)C=CC(C)(C)O2	0.778
CN1CCN2c3ccccc3Cc3ccccc3C2C1 (stereo not given)	1.01
COc1cc2c3cc1Oc1cc(ccc1O)C[C@@H]1c4c(cc(OC)c(O)c4Oc4ccc(cc4)C[C@@H]3N(C)CC2)CC[N+]1(C)C	1.01
COc1cc2cc[n+]3cc4c(OC)c(OC)ccc4cc3c2cc1OC	0.973
C=C1C2CC[C@@]3(C)[C@H](c4ccoc4)OC(=O)C[C@]13O[C@H]1CC(=O)C(C)(C)[C@H](C(O)C(=O)OC)[C@@]21C (stereo not given in full)	1.01
C=CCCCCCCCCCCCC(O)CC(O)CO (stereo not given) (tested in a mixture with another compound)	0.273
COc1ccc2cc3[n+](cc2c1OC)CCc1cc2c(cc1-3)OCO2	0.874
O=C1CCc2cc(OCCCCc3nnnn3C3CCCCC3)ccc2N1	1
C[n+]1cc2c3c(ccc2c2ccc4cc5c(cc4c21)OCO5)OCO3	0.0573
COc1cc([C@@H]2c3cc4c(cc3[C@H](OC(C)=O)[C@H]3COC(=O)[C@H]23)OCO4)cc(OC)c1OC	0.993
CSc1ccc2c(c1)C(N1CCN(C)CC1)Cc1ccccc1S2 (stereo not given)	1.01
CC1(C)O[C@@H]2CC3C4CCC5=CC(=O)C=C[C@]5(C)[C@@]4(F)[C@@H](O)C[C@]3(C)[C@]2(C(=O)CO)O1 (stereo not given in full)	1.01
